Measured selectivity ratio values are reported for all entries that follow.
- procedure_summary: Selectivity index, ratio of IC50 for HEK293 cells to IC50 for antitrypanosomal activity against bloodstream Trypanosoma brucei Lister 427
- Assay type: toxicity
- assay_conditions: human, read-out: Ratio IC50
quantity_kind: selectivity ratio

>>> observed_value("COc1cc(NC(=O)c2cccc(Cl)c2)ccc1S(N)(=O)=O")
"> 36.6"
>>> observed_value("COc1cc(NC(=O)c2ccc(C(F)(F)F)cc2C(F)(F)F)ccc1S(N)(=O)=O")
"> 1.22"
>>> observed_value("COc1cc(NC(=O)c2cc(Cl)cc(Cl)c2)ccc1S(N)(=O)=O")
"< 0.98"
>>> observed_value("COc1cc(NC(=O)c2ccco2)ccc1S(N)(=O)=O")
"> 10.2"
>>> observed_value("COc1cccc(C(=O)Nc2ccc(S(N)(=O)=O)c(OC)c2)c1")
"> 33.5"
